assay: Compound was evaluated for its pKa (weak acid) value; assay type: physicochemical
MEASURED ATTRIBUTE: pKa

>>> result("Cc1c2cc[n+](C)cc2c(C)c2c3c([nH]c12)C=CC(=O)C3=O")
5.1
